# credit: ChEMBL document CHEMBL4373682

EXPERIMENT_NOTES: Tmax in rat at 10 to 480 mg/kg, po
Type: ADME, organism-based
CONDITION_DETAILS: in vivo

COMPOUND: Cc1c(Cl)cccc1Nc1ccccc1C(=O)O [TOLFENAMIC ACID]
Tmax: 2 to 3 h
